Molecular target: T1, human MSLN-R1-his protein (human, UniProt Q13421 296-390)
T1 construct: Made in HEK293E cells, purified on nickel column; also called hMSLN-R1-his; human MSLN-R1 protein; not shown: His tag
T1 chain: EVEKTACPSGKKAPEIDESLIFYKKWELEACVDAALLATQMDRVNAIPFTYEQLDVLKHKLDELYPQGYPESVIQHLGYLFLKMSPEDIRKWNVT
Assay: ELISA, coated antigen, no antibody (blank)
Would you mind telling me the reported OD450 of each entry?
When you answer, write just the number.

GET /values?readout=OD450&item= S009-F7.67.12 chimeric antibody (antibody, human IgG1, kappa, V domains shown, Human-murine chimeric antibody, human IgG1/kappa constant regions) VH: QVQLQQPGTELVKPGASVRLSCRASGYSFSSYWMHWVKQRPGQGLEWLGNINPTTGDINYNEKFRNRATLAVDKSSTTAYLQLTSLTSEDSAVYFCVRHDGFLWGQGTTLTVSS VL: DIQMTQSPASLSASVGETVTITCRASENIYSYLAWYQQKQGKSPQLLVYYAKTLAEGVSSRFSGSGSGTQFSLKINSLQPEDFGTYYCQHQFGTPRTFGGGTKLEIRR
0.07

GET /values?readout=OD450&item= S009-F7.65.13 chimeric antibody (antibody, human IgG1, kappa, V domains shown, Human-murine chimeric antibody, human IgG1/kappa constant regions) VH: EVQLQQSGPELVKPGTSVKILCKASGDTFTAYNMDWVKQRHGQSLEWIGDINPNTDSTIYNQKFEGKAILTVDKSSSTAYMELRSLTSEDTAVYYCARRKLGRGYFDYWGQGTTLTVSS VL: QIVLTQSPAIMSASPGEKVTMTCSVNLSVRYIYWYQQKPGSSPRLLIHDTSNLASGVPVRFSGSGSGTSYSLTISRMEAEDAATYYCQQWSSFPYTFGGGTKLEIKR
0.07

GET /values?readout=OD450&item= S009-F7.69.8 chimeric antibody (antibody, human IgG1, kappa, V domains shown, Human-murine chimeric antibody, human IgG1/kappa constant regions) VH: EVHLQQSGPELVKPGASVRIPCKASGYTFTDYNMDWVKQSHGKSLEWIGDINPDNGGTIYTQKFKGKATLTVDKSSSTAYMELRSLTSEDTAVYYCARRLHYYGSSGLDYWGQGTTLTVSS VL: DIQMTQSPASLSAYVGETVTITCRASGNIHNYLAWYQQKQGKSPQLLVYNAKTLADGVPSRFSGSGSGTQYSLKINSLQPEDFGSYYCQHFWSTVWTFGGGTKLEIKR
0.07
